B1: C8orf76 (parent)
chain: KLAEAYLNLGPALSAALASSQKQH

variants of: B1; assay: protein stability index of a GFP-peptide fusion (GPS, HEK-293T) (PSI 1-6); higher = more stable; settings: c terminus: a fixed tail appended;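 further: lentivirally expressed fusions sorted by FACS into six bins by GFP to DsRed ratio, PSI derived from sequencing read proportions per bin multiplied by bin number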
property-measured: protein stability index

Example variants with recorded protein stability index:
P11H :: 1.84
E4H :: 3.03
L2N :: 2.61
E4F :: 1.94
G10Q :: 2.21

Req: Find the recorded protein stability index belonging to L7P and report it.
Resp: 2.23

Req: Follow-up item: L7N
Resp: 1.94

Req: Follow-up item: A5K
Resp: 1.82

Req: Follow-up item: A15L
Resp: 3.15

Req: Follow-up item: E4P
Resp: 2.2

Req: Follow-up item: A15T
Resp: 2.15

Req: Follow-up item: A18Y
Resp: 2.37
